Documented normalized RNA/DNA level with ligand (log10) across a set of variants
B1: library; a variant is named by its letters at N, in order (parent)
chain: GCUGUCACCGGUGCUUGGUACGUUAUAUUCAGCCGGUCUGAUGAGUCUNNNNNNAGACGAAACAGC

variants of: B1; assay: normalized RNA/DNA level with ligand (relative to sTRSVctl = 100) (log10 (% of sTRSVctl)); HEK293T overexpressing SLC46A1; ligand concentration (+) RNA-Seq: 6 mM; higher = less ribozyme self-cleavage, higher mRNA level; conditions: with (6R,S)-folinic acid; ligand present: yes
Answer with a bare number; do not write a unit.

Examples with their reported normalized RNA/DNA level with ligand (log10) follow.
CCCUCC :: 2.01
CUGGUA :: 1.98
AACCGC :: 2.01
CCGAGC :: 2.01
AGGUCA :: 2.01
GUGAGA :: 2.02

### Prompt So what's the measured normalized RNA/DNA level with ligand (log10) for this one? "UUACGG"
### Response 2.05

### Prompt Please answer likewise for "GUAGCG"
### Response 2.01

### Prompt Please answer likewise for "UGGAGU"
### Response 1.99

### Prompt Please answer likewise for "AAAGGG"
### Response 1.97

### Prompt Please answer likewise for "GGCAAC"
### Response 2.04
